targetOrSystem: P2X3 receptor
experimentalProtocol: Antagonist activity against rat or human P2X3 receptor expressed in HEK293/1321N1 cells assessed as inhibition of alpha,beta-meATP/ATP-induced calcium influx by Fluo-4 dye based FLIPR assay
pIC50: −log10 of the molar value.
Decide by pIC50: equal to or exceeding 7 means MET, less means NOT MET.

Challenge: Quick check: does N#Cc1cc(Cl)ccc1N1CCc2ncnc(N[C@H](CO)c3ccc(C(F)F)nc3)c2C1 have pIC50 greater than or equal to 7?
Response given: MET

Challenge: Please check the record CCc1ccc(CNc2ncnc3c2CN(c2ccc(C)cc2C#N)CC3)cn1 and state if its pIC50 is at or above 7.
Response given: MET

Challenge: Determine whether this compound has pIC50 no lower than 7: N#Cc1cc(Cl)ccc1N1CCc2ncnc(N[C@H](CCO)c3ccc(C(F)F)nc3)c2C1
Response given: MET

Challenge: Confirm if pIC50 reported for the compound N#Cc1cc(Cl)ccc1N1CCc2ncnc(NCc3cccc(-n4cnnc4)c3)c2C1 is 7 or above.
Response given: NOT MET

Challenge: Could you please find out whether Cc1ccc(N2CCc3ncnc(N[C@H](CO)c4ccc(C(F)(F)F)nc4)c3C2)c(C#N)c1 has pIC50 that meets 7 or exceeds it?
Response given: MET

Challenge: Tell me whether pIC50 is at least 7 here: Cc1ccc(N2CCc3ncnc(NCc4ccn5ccnc5c4)c3C2)c(C#N)c1
Response given: MET

Challenge: Determine whether measured pIC50 meets or exceeds 7 for Cc1ccc(N2CCc3ncnc(NCc4ccc(C(F)(F)F)nc4)c3C2)c(C#N)c1
Response given: MET

Challenge: Has Cc1ccc(N2CCc3ncnc(NCc4ccc(C)c(-n5cncn5)c4)c3C2)c(C#N)c1 a recorded pIC50 greater than or equal to 7?
Response given: MET

Challenge: # bool: pIC50 of COc1ccc([C@@H](CC(=O)O)Nc2ncnc3c2CN(c2ccc(Cl)cc2C#N)CC3)cn1 >= 7
Response given: NOT MET

Challenge: Confirm if pIC50 reported for the compound Cc1ccc(CNc2ncnc3c2CN(c2ccc(Cl)cc2C#N)CC3)cc1S(C)(=O)=O is 7 or above.
Response given: MET

Challenge: Determine whether measured pIC50 meets or exceeds 7 for N#Cc1cc(C2CC2)ccc1N1CCc2ncnc(NCc3ccc(C(F)(F)F)nc3)c2C1
Response given: NOT MET

Challenge: Would you say Cc1ccc(N2CCc3ncnc(NCc4ccc5cc[nH]c5c4)c3C2)c(C#N)c1 shows pIC50 at minimum 7?
Response given: NOT MET

Challenge: Decide: pIC50 of N#Cc1cc(C(F)(F)F)ccc1N1CCc2ncnc(NCc3ccc(C(F)(F)F)nc3)c2C1 >= 7?
Response given: NOT MET

Challenge: Record N#Cc1cc(Cl)ccc1N1CCc2ncnc(N[C@H](CO)c3ccc(C(F)(F)F)nc3)c2C1 ; criterion: pIC50 no lower than 7. Met?
Response given: MET

Challenge: Entry CN(C)c1ccc(CNc2ncnc3c2CN(c2ccc(Cl)cc2C#N)CC3)cn1 : is its pIC50 no less than 7?
Response given: NOT MET

Challenge: Is the recorded value of pIC50 equal to or greater than 7 for this compound? COc1ccc([C@@H](CO)Nc2ncnc3c2CN(c2ccc(Cl)cc2C#N)CC3)cn1
Response given: MET

Challenge: Determine whether this compound has pIC50 no lower than 7: Cc1ccc(N2CCc3ncnc(NCc4ccc(Cl)c(S(C)(=O)=O)c4)c3C2)c(C#N)c1
Response given: MET

Challenge: hey, is pIC50 for this one >= 7? Cc1ccc(N2CCc3ncnc(N[C@H](CCO)c4ccc(C(F)(F)F)nc4)c3C2)c(C#N)c1
Response given: MET

Challenge: Check if pIC50 >= 7 (inclusive). Item: Cc1ccc(N2CCc3ncnc(NCc4ccc(C)c(S(C)(=O)=O)c4)c3C2)c(C#N)c1
Response given: MET

Challenge: Given the entry COc1ccc(CNc2ncnc3c2CN(c2ccc(Cl)cc2C#N)CC3)cn1 , answer whether its pIC50 meets or surpasses 7.
Response given: MET

Challenge: Can Cc1ccc(N2CCc3ncnc(NCc4ccc(C)c(I)c4)c3C2)c(C#N)c1 be said to have pIC50 at or above 7?
Response given: NOT MET

Challenge: Decide: pIC50 of Cc1ccc(N2CCc3ncnc(NCc4ccc5c(c4)OCO5)c3C2)c(C#N)c1 >= 7?
Response given: MET

Challenge: # check: pIC50 of Cc1ccc(N2CCc3ncnc(NCc4ccc(Cl)nc4)c3C2)c(C#N)c1 is greater than or equal to 7
Response given: MET

Challenge: Hi team, for Cc1ccc(N2CCc3ncnc(N[C@H](CCO)c4ccc(C(F)F)nc4)c3C2)c(C#N)c1 , is the recorded pIC50 at or above 7?
Response given: MET

Challenge: Would you say COc1ccc([C@H](CC(=O)OC(C)(C)C)Nc2ncnc3c2CN(c2ccc(Cl)cc2C#N)CC3)cn1 shows pIC50 at minimum 7?
Response given: NOT MET

Challenge: Is the recorded value of pIC50 equal to or greater than 7 for this compound? Cc1ccc(N2CCc3ncnc(NCc4ccccn4)c3C2)c(C#N)c1
Response given: NOT MET

Challenge: Evaluate CSc1cc(CNc2ncnc3c2CN(c2ccc(C)cc2C#N)CC3)ccc1C : pIC50 at minimum 7?
Response given: NOT MET

Challenge: Could you please find out whether Cc1ccc(N2CCc3ncnc(NCc4ccc(Cl)cn4)c3C2)c(C#N)c1 has pIC50 that meets 7 or exceeds it?
Response given: MET

---

targetOrSystem: P2X3 receptor
experimentalProtocol: Antagonist activity against rat or human P2X3 receptor expressed in HEK293/1321N1 cells assessed as inhibition of alpha,beta-meATP/ATP-induced calcium influx by Fluo-4 dye based FLIPR assay
endpointLabel: pIC50
The meaning of pIC50 here: minus log10 of the concentration in molar units.

Kindly note the recorded pIC50 for N#Cc1cc(F)ccc1N1CCc2ncnc(NCc3ccc(C(F)(F)F)nc3)c2C1 , which is 7.07

The recorded pIC50 for COc1ccc(CNc2ncnc3c2CN(c2ccc(Br)cc2C#N)CC3)cn1 is 7.11

Query N#Cc1cc(Cl)ccc1N1CCc2ncnc(NCc3ccc4nccnc4c3)c2C1 yields pIC50 of 6.90

Recorded result, N#Cc1cc(Cl)ccc1N1CCc2ncnc(NCc3ccc(C(F)(F)F)cn3)c2C1 , pIC50: 6.93

Notebook: N#Cc1cc(Cl)ccc1N1CCc2ncnc(N[C@H](CCO)c3ccc(C(F)(F)F)nc3)c2C1 , pIC50 read as 7.05

Record Cc1ccc(N2CCc3ncnc(NCc4ccc(C)c(N5CCOCC5)c4)c3C2)c(C#N)c1 . Reported pIC50: 7.02

Note to self: pIC50 recorded for Cc1ccc(N2CCc3ncnc(NCc4cccc(-n5cnnc5)c4)c3C2)c(C#N)c1 was 7.19

Form field pIC50, entry Cc1ccc(N2CCc3ncnc(NCc4ccc(C)c(F)c4)c3C2)c(C#N)c1 : 7.05

Reported pIC50 of N#Cc1cc(Cl)ccc1N1CCc2ncnc(NCc3ncc(C(F)(F)F)cc3Cl)c2C1 : 7.04

The molecule Cc1ccc(N2CCc3ncnc(NCc4ccc(C)c(C#N)c4)c3C2)c(C#N)c1 showed pIC50 equal to 7.20
